Tested on: human lung carcinoma cells (A549)
Assay: Cytotoxicity, MTT assay, A549
Format: cell-based
Settings: quotient of the IC50 values towards nonmalignant LO2 cells
Parameter: A549 SI. Scope: all listed entries.
Number only, please.

| chem_smiles | A549 SI |
| --- | --- |
| COc1ccc(/C=N/c2cccc(/C=C3\CN(C)C/C(=C\c4cccc(/N=C/c5ccc(OC)cc5O)c4)C3=O)c2)c(O)c1 | 4.4 |
| CN1C/C(=C\c2cccc(/N=C/c3cc(Br)ccc3O)c2)C(=O)/C(=C/c2cccc(/N=C/c3cc(Br)ccc3O)c2)C1 | 1.4 |
| Nc1ccc(F)c(/C=C2\CNC/C(=C\c3cc(N)ccc3F)C2=O)c1 | 5.5 |
| O=C1/C(=C/c2cc(/N=C/c3ccc(O)c(O)c3O)ccc2F)CNC/C1=C\c1cc(/N=C/c2ccc(O)c(O)c2O)ccc1F | 10.7 |
| CN1C/C(=C\c2cccc(N)c2)C(=O)/C(=C/c2cccc(N)c2)C1 | 2.6 |

So what's the measured A549 SI for this one? CN1C/C(=C\c2cccc(/N=C/c3ccccc3O)c2)C(=O)/C(=C/c2cccc(/N=C/c3ccccc3O)c2)C1
2.1

Now try CN1C/C(=C\c2cc(/N=C/c3ccc(O)c(O)c3O)ccc2F)C(=O)/C(=C/c2cc(/N=C/c3ccc(O)c(O)c3O)ccc2F)C1 .
12.5

----------
Parameter: pIC50. Scope: all listed entries.
Test system: human normal heptical cell line (LO2)
Assay: Cytotoxicity, MTT assay, non-malignant LO2
Assay type: cell-based
Conditions: 24 hours, non-malignant cells
// pIC50: -log10(molar conc.)

// worked examples, pIC50 included
| compound | target_under_test | pIC50 |
| --- | --- | --- |
| Nc1ccc(F)c(/C=C2\CNC/C(=C\c3cc(N)ccc3F)C2=O)c1 | human normal heptical cell line (LO2) | 4.73 |
| CN1C/C(=C\c2cc(/N=C/c3cccc(O)c3O)ccc2F)C(=O)/C(=C/c2cc(/N=C/c3cccc(O)c3O)ccc2F)C1 | human normal heptical cell line (LO2) | 4.66 |
| O=C1/C(=C/c2cc(/N=C/c3cccc(O)c3O)ccc2F)CNC/C1=C\c1cc(/N=C/c2cccc(O)c2O)ccc1F | human normal heptical cell line (LO2) | 4.75 |
| O=C1/C(=C/c2cc(/N=C/c3ccc(O)c(O)c3O)ccc2F)CNC/C1=C\c1cc(/N=C/c2ccc(O)c(O)c2O)ccc1F | human normal heptical cell line (LO2) | 4.82 |
| CN1C/C(=C\c2cc(N)ccc2F)C(=O)/C(=C/c2cc(N)ccc2F)C1 | human normal heptical cell line (LO2) | 4.67 |
| O=C1/C(=C/c2cccc(/N=C/c3cc(Br)ccc3O)c2)CCC/C1=C\c1cccc(/N=C/c2cc(Br)ccc2O)c1 | human normal heptical cell line (LO2) | 4.92 |

Notebook: pull reported pIC50 for human normal heptical cell line (LO2), entry CN1C/C(=C\c2cccc(/N=C/c3cc(Br)ccc3O)c2)C(=O)/C(=C/c2cccc(/N=C/c3cc(Br)ccc3O)c2)C1
4.89

Now try COc1ccc(/C=N/c2ccc(F)c(/C=C3\CNC/C(=C\c4cc(/N=C/c5ccc(OC)cc5O)ccc4F)C3=O)c2)c(O)c1 .
4.84

Now try CN1C/C(=C\c2cccc(/N=C/c3cc(F)ccc3O)c2)C(=O)/C(=C/c2cccc(/N=C/c3cc(F)ccc3O)c2)C1 .
4.86

Now try CN1C/C(=C\c2cc(/N=C/c3cc(O)ccc3O)ccc2F)C(=O)/C(=C/c2cc(/N=C/c3cc(O)ccc3O)ccc2F)C1 .
4.67

Now try O=C1/C(=C/c2cc(/N=C/c3cc(O)ccc3O)ccc2F)CNC/C1=C\c1cc(/N=C/c2cc(O)ccc2O)ccc1F .
4.85

Now try O=C1/C(=C/c2cccc(/N=C/c3cc(F)ccc3O)c2)CCC/C1=C\c1cccc(/N=C/c2cc(F)ccc2O)c1 .
4.77

----------
System: human lung carcinoma cells (A549)
Assay: Cytotoxicity, MTT assay, A549
Assay type: cell-based
Conditions: quotient of the IC50 values towards nonmalignant LO2 cells
observation_type: A549 SI

| molecule | target_under_test | observation_type | endpoint_value |
| --- | --- | --- | --- |
| COc1ccc(/C=N/c2ccc(F)c(/C=C3\CNC/C(=C\c4cc(/N=C/c5ccc(OC)cc5O)ccc4F)C3=O)c2)c(O)c1 [5d] | human lung carcinoma cells (A549) | A549 SI | 5.8 |

So what's the measured A549 SI for this one? Nc1cccc(/C=C2\CCC/C(=C\c3cccc(N)c3)C2=O)c1 [2a]
3.6

Now try CN1C/C(=C\c2cccc(/N=C/c3cc(F)ccc3O)c2)C(=O)/C(=C/c2cccc(/N=C/c3cc(F)ccc3O)c2)C1 [4b] .
3.4

Now try CN1C/C(=C\c2cc(/N=C/c3cc(O)ccc3O)ccc2F)C(=O)/C(=C/c2cc(/N=C/c3cc(O)ccc3O)ccc2F)C1 [6b] .
9.1

----------
Tested on: human normal heptical cell line (LO2)
Assay: Cytotoxicity, MTT assay, non-malignant LO2
Assay type: cell-based
Details: 24 hours, non-malignant cells
observation_type: IC50 (µM)
All answers are understood in µM, so give the number only.

// worked examples, IC50 included
| compound | target_under_test | IC50 [µM] |
| --- | --- | --- |
| COc1cccc2c1C(=O)c1c(O)c3c(c(O)c1C2=O)C[C@@](O)(C(=O)CO)C[C@@H]3O[C@H]1C[C@H](N)[C@H](O)[C@H](C)O1 [DOX, Doxorubicin, reference compound] | human normal heptical cell line (LO2) | 6.1 |
| COc1ccc(/C=N/c2cccc(/C=C3\CN(C)C/C(=C\c4cccc(/N=C/c5ccc(OC)cc5O)c4)C3=O)c2)c(O)c1 | human normal heptical cell line (LO2) | 11.7 |

Here is the next item to consider.
So what's the measured IC50 for this one? COc1cc(Br)cc(/C=N/c2cccc(/C=C3\CCC/C(=C\c4cccc(/N=C/c5cc(Br)cc(OC)c5O)c4)C3=O)c2)c1O
11.3

----------
Parameter: IC50. Scope: all listed entries.
Test system: human lung carcinoma cells (A549)
Assay: Cytotoxicity, MTT assay, A549
Format: cell-based
Conditions: Homo sapiens, A549; MTT, 24 hours
All answers are understood in µM, so give the number only.

// worked examples, IC50 included
| compound | unit_annotation | IC50 |
| --- | --- | --- |
| O=C1/C(=C/c2cc(/N=C/c3ccc(O)c(O)c3O)ccc2F)CNC/C1=C\c1cc(/N=C/c2ccc(O)c(O)c2O)ccc1F | µM | 1.4 |
| COc1ccc(/C=N/c2cccc(/C=C3\CN(C)C/C(=C\c4cccc(/N=C/c5ccc(OC)cc5O)c4)C3=O)c2)c(O)c1 | µM | 2.6 |
| O=C1/C(=C/c2cccc(/N=C/c3cc(F)ccc3O)c2)CCC/C1=C\c1cccc(/N=C/c2cc(F)ccc2O)c1 | µM | 6.1 |
| O=C1/C(=C/c2cc(/N=C/c3cc(O)ccc3O)ccc2F)CNC/C1=C\c1cc(/N=C/c2cc(O)ccc2O)ccc1F | µM | 3 |
| COc1ccc(/C=N/c2cccc(/C=C3\CCC/C(=C\c4cccc(/N=C/c5ccc(OC)cc5O)c4)C3=O)c2)c(O)c1 | µM | 4.1 |

So what's the measured IC50 for this one? CN1C/C(=C\c2cccc(/N=C/c3cc(F)ccc3O)c2)C(=O)/C(=C/c2cccc(/N=C/c3cc(F)ccc3O)c2)C1
4.1

Now try COc1cc(/C=C/C(=O)CC(=O)/C=C/c2ccc(O)c(OC)c2)ccc1O [Curcumin, reference compound] .
19.4

Now try CN1C/C(=C\c2cc(/N=C/c3cccc(O)c3O)ccc2F)C(=O)/C(=C/c2cc(/N=C/c3cccc(O)c3O)ccc2F)C1 .
1.9

Now try CN1C/C(=C\c2cccc(N)c2)C(=O)/C(=C/c2cccc(N)c2)C1 .
6.5

Now try COc1cc(Br)cc(/C=N/c2cccc(/C=C3\CCC/C(=C\c4cccc(/N=C/c5cc(Br)cc(OC)c5O)c4)C3=O)c2)c1O .
2.5

Now try CN1C/C(=C\c2cc(/N=C/c3ccc(O)c(O)c3O)ccc2F)C(=O)/C(=C/c2cc(/N=C/c3ccc(O)c(O)c3O)ccc2F)C1 .
1.5

Now try CN1C/C(=C\c2cc(N)ccc2F)C(=O)/C(=C/c2cc(N)ccc2F)C1 .
4.1

Now try Nc1cccc(/C=C2\CCC/C(=C\c3cccc(N)c3)C2=O)c1 .
7.9

Now try CN1C/C(=C\c2cccc(/N=C/c3cc(Br)ccc3O)c2)C(=O)/C(=C/c2cccc(/N=C/c3cc(Br)ccc3O)c2)C1 .
9

----------
Test system: human lung carcinoma cells (A549)
Assay: Cytotoxicity, MTT assay, A549
Type: cell-based
Conditions: quotient of the IC50 values towards nonmalignant LO2 cells
Param threshold (2) applies to A549 SI; output T when value >= threshold, F when value < threshold.

Solved entries (count: 3):
| molecule | label |
| --- | --- |
| O=C1/C(=C/c2cccc(/N=C/c3cc(Br)ccc3O)c2)CCC/C1=C\c1cccc(/N=C/c2cc(Br)ccc2O)c1 | F |
| COc1cc(Br)cc(/C=N/c2cccc(/C=C3\CN(C)C/C(=C\c4cccc(/N=C/c5cc(Br)cc(OC)c5O)c4)C3=O)c2)c1O | T |
| COc1cc(/C=C/C(=O)CC(=O)/C=C/c2ccc(O)c(OC)c2)ccc1O [Curcumin, reference compound] | F |

Evaluate O=C1/C(=C/c2cccc(/N=C/c3ccccc3O)c2)CCC/C1=C\c1cccc(/N=C/c2ccccc2O)c1 : A549 SI at minimum 2?
T

Now try O=C1/C(=C/c2cc(/N=C/c3cccc(O)c3O)ccc2F)CNC/C1=C\c1cc(/N=C/c2cccc(O)c2O)ccc1F .
T

Now try O=C1/C(=C/c2cccc(/N=C/c3cc(F)ccc3O)c2)CCC/C1=C\c1cccc(/N=C/c2cc(F)ccc2O)c1 .
T

Now try O=C1/C(=C/c2cc(/N=C/c3cc(O)ccc3O)ccc2F)CNC/C1=C\c1cc(/N=C/c2cc(O)ccc2O)ccc1F .
T

Every entry's value here was drawn from paper PMC6327999.
